# MEASURED_ON: T1, recombinant human CD70 (AviTag, polyhistidine tag and chicken tenascin trimerization domain fused to the … (chicken; human, UniProt P10039 110-139, limits assumed)
# T1 construct: domain: trimerization domain; Expressed in Expi293, purified by IMAC and SEC; Copies 3 is inferred from the trimerization domain; not shown: AviTag; polyhistidine tag
# T1 sequence: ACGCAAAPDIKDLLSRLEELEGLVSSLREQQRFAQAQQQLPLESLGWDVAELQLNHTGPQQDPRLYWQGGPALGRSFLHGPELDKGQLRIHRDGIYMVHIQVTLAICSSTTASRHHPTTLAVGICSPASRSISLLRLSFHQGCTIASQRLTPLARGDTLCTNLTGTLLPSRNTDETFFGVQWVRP
# RUN_DESCRIPTION: SPR (Biacore 8K, 37 C): CD70 captured via anti-AviTag antibody on C1 chip, scFv-Fc as analyte; 1:1 Langmuir fit
EXPERIMENTAL_ENDPOINT: kon (M⁻¹ s⁻¹)
Express your answer in M⁻¹ s⁻¹, writing the number without its unit.

>>> assay_value("12C4 anti-CD70 scFv-Fc fusion (Fc fusion, scFv-Fc expressed in Expi293; not shown: part of the hinge and Fc from a modified human IgG2) QVQLVQSGAEVKKPGASVKVSCKASGYTFTGYYLHWVRQAPGQGLEWMGWINPNSGGTNYAQKFQGRVTMTRDTSITTAYMELSRLRIDDTAVYYCARDRGVTMIVDGMDDWGQGTTVTVSSGGGGSGGGGSGGGGSGGGGSDIVMTQSPLSLPVTPGEPASISCRSSQSLLHSNGYNYLDWYLQKPGQSPQVLILLGSNRASGVPDRVSASGSGTDFTLKISRMQAEDVGIYYCMQTLQTPFTFGQGTKLEIK")
"1.56e+06"
>>> assay_value("10H10 anti-CD70 scFv-Fc fusion (Fc fusion, scFv-Fc expressed in Expi293; not shown: part of the hinge and Fc from a modified human IgG2) EVQLVESGGGLVQPGGSLRLSCAVSGFTFSNHNIHWVRQAPGKGLEWISYISRSSSTIYYADSVKGRFTISRDNAKNSLYLQMNSLRDEDTAVYYCARDHAQWYGMDVWGQGTTVTVSSGGGGSGGGGSGGGGSGGGGSDIQMTQSPSSVSASVGDRVTITCRASQGISSWLAWYQQKPGKAPKVLIYAASSLQSGVPSRFSGSGSGTDFTLTISSLQPEDFATYYCQQAFSFPFTFGPGTKVDIK")
46200
>>> assay_value("12D7 anti-CD70 scFv-Fc fusion (Fc fusion, scFv-Fc expressed in Expi293; not shown: part of the hinge and Fc from a modified human IgG2) QVQLVESGGGVVQPGRSLRLSCVASGFTFSDYGIHWVRQAPGMGQEWVAVIWYDGSIKKYSDSVKGRFIISRDNSENTVYLQMNSLRGEDTAIYYCARDEVGTFGAFDFWGQGTKVTVSSGGGGSGGGGSGGGGSGGGGSDIQLTQSPSFLSASVGDRVSITCRASQDISSFLAWYQQKPGKAPVLLIYVASTLQSGVPSRFSGSGSGTEFTLTVSSLQPEDFATYYCQQLHVYPITFGQGTRLEIR")
441000
>>> assay_value("11C1 anti-CD70 scFv-Fc fusion (Fc fusion, scFv-Fc expressed in Expi293; not shown: part of the hinge and Fc from a modified human IgG2) QVQLQESGPGLVKPSETLSLNCTVSGGSISYYYWTWIRQPPGKGLEWIGHVIYSGTTNYNPSLKSRVTISVDTSKNQFSLKLNSVTAADTAVYYCVRAEGSLDAFDLWGQGTMVTVSSGGGGSGGGGSGGGGSGGGGSDIQMTQSPSILSASVGDRVTITCRASQSVSSWLAWYQQKPGKAPKVLIYKASSLESGVPSRFSGTGSGTEFTLTISSLQSDDFATYYCQQYNTYSHTFGQGTKLEIK")
224000

Shifting focus to the binder that follows.
## Task Look at this binder and give its reported kon. 10A1 anti-CD70 scFv-Fc fusion (Fc fusion, scFv-Fc expressed in Expi293; not shown: part of the hinge and Fc from a modified human IgG2) QVQLQESGPGLVKPSETLSLTCTVSGGSISYYYWTWIRQPPGKGLEWIGHIYYSGSTNYNPSLKSRVTISIDTSKNLFSLKLSSVTAADTAVYYCARAEGSLDAFDFWGQGTMVTVSSGGGGSGGGGSGGGGSGGGGSDIQMTQSPSTLSASVGDRVTITCRASQSISTWLAWYQQKPGKAPKVLIYKASSLESGVPSRFSGSGSGTEFILTINSLQPDDFASYYCQQYKSYSHTFGQGTKLEIK
## Result 577000

These data points were gathered from patent US20190233528A1.
